FYI, the data here is from PubChem BioAssay.

Test: LAP4-GFP expression modulators in yeast, confirmation, cell-based, cherry picks, flow cytometry, mother/daughter gates (AID 2271)
Settings: S. cerevisiae LAP4-GFP strain, 3 h, at 10 µM, 100 means same as DMSO control
The source made the active and inactive calls.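 Rule for the calls: active = GFP response above 150% of the DMSO control; inconclusive = fewer than 70 events counted in any yeast strain; inactive = the rest.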
Classes used: active, inactive

compound	category
CC1=NNC(=O)/C1=C\c1cn(-c2ccccc2)nc1-c1ccccc1	active
COc1cc(/C=C/c2ccc3c(Br)cc(Br)c(O)c3n2)ccc1O	inactive
COc1cccc(NC(=O)c2ccc3c(c2)CCCC3)c1	inactive
Cc1cc(C=C2C(=O)c3ccccc3C2=O)c(C)n1-c1cccc(C(=O)O)c1	inactive
O=S(=O)(/N=C(/Sc1ccccc1)c1ccccc1)c1ccccc1	active
CC(=O)Oc1ccc(N2C(=O)C3C4C=CC(CO)(O4)C3C2=O)cc1 (stereo not drawn)	inactive
COc1ccc(C(=O)NNC(=S)NC(=O)/C=C/c2cccs2)cc1	active
O=[N+]([O-])c1ccc(N2CCN(CCO)CC2)cc1Sc1ccccn1	inactive
O=C(c1ccc2c(c1)OCO2)N1CCN(c2ccc(F)cc2)CC1	inactive
Cc1onc(-c2ccccc2)c1C(=O)NC(=S)NNC(=O)c1ccco1	inactive
CCOc1cc(/C=C2\N=C(C)OC2=O)cc(Cl)c1OCC(=O)OC	inactive
Oc1ccc(Cl)cc1-c1cc(-c2ccco2)[nH]n1	inactive
c1cc2c(cc1C1CCCCC1)c1c3n2CCCNC3CCC1 (stereo not drawn)	inactive
O=C(Nc1ccccc1)c1nnsc1S(=O)(=O)c1ccc(Cl)cc1	active
CC1CCc2c(C(=O)NCc3cccnc3)csc2C1 (stereo not drawn)	inactive
O=S(=O)(/N=C(/Nc1ccc(F)cc1F)c1ccc(Cl)cc1)c1ccccc1	inactive
CCN=C(NCC)SC1CC(=O)N(c2cccc(OCC)c2)C1=O (stereo not drawn)	inactive
Cc1ccc(/C(N)=N/OC(=O)c2ccc(F)cc2)cc1	inactive
Cc1cccc(Cn2cc(/C=C/[N+](=O)[O-])c3ccccc32)c1	inactive
Cn1c(=O)c(C(=O)NC2CCCCCCC2)c(O)c2ccccc21	inactive
COc1ccc(OC)c(C(=O)/C=C/c2ccccc2C(F)(F)F)c1	inactive
C=CCOc1ccccc1C(=O)/C=C1/C(=O)Nc2ccccc21	inactive
COc1ccc(/C=C/C(=O)c2ccc(OC)cc2O)cc1	inactive
